These entries and their values trace back to patent US12312292B2.

Tested on: BALB/c female mice
Assay: Acute toxicity analysis of lipid molecules (cationic lipid LNP) in BALB/c female mice
Conditions: low dose group, 50 μg/pc; blood 24 h after injection; Ave(SD)
# reported Total bilirubin (TBIL); entries follow
measurement_kind: Total bilirubin (TBIL)

> print(dat)
                                   compound        measurement.kind  test.result
1  CCCCCCCCCCCOC(=O)CCCCCN(CCCCCCO)CCCCCCCC(=O)OC(CCCCCCCC)CCCCCCCC  Total bilirubin (TBIL)  1.22 (0.20)
2  CCCCCCCCCCCOC(=O)CCCCCN(CCCCCCCCCCCCO)CCCCCCCC(=O)OC(CCCCCCCC)CCCCCCCC  Total bilirubin (TBIL)  1.18 (0.16)
3  CCCCCCCCCCCOC(=O)CCCCCN(CCCCCCCC(=O)OC(CCCCCCCC)CCCCCCCC)CC1(O)CC1  Total bilirubin (TBIL)  1.18 (0.23)
4  CCCCCCCCCCCOC(=O)CCCCCN(CCCCCCCC(=O)OC(CCCCCCCC)CCCCCCCC)C(C)CCO (centres unmarked)  Total bilirubin (TBIL)  1.21 (0.19)
5  CCCCCCCCCCCOC(=O)CCCCCN(CCCCCO)CCCCCCCC(=O)OC(CCCCCCCC)CCCCCCCC  Total bilirubin (TBIL)  1.18 (0.13)

====

# reported γ-Glutamyltransferase (GGT); entries follow
Test system: BALB/c female mice
Assay: Acute toxicity analysis of lipid molecules (cationic lipid LNP) in BALB/c female mice
Conditions: low dose group, 50 μg/pc; blood 24 h after injection; Ave(SD)
measurement_kind: γ-Glutamyltransferase (GGT)

> print(dat)
                                   molecule             measurement.kind      test.result
1  CCCCCCCCCCCOC(=O)CCCCCN(CCO)CCCCCCCC(=O)OC(CCCCCCCC)CCCCCCCC [SM102, reference compound]  γ-Glutamyltransferase (GGT)  0.41 (0.24) U/L
2  CCCCCCCCCCCOC(=O)CCCCCN(CCCCCO)CCCCCCCC(=O)OC(CCCCCCCC)CCCCCCCC  γ-Glutamyltransferase (GGT)  0.22 (0.33) U/L
3  CCCCCCCCCCCOC(=O)CCCCCN(CCCCCCCC(=O)OC(CCCCCCCC)CCCCCCCC)C(C)CCO (stereo not drawn)  γ-Glutamyltransferase (GGT)  0.24 (0.37) U/L
4  CCCCCCCCCCCOC(=O)CCCCCN(CCCCCCCCCCCCO)CCCCCCCC(=O)OC(CCCCCCCC)CCCCCCCC  γ-Glutamyltransferase (GGT)  0.06 (0.12) U/L
5  CCCCCCCCCCCOC(=O)CCCCCN(CCCCCCCC(=O)OC(CCCCCCCC)CCCCCCCC)CC1(O)CC1  γ-Glutamyltransferase (GGT)  0.38 (0.41) U/L
6  CCCCCCCCCCCOC(=O)CCCCCN(CCCCCCO)CCCCCCCC(=O)OC(CCCCCCCC)CCCCCCCC  γ-Glutamyltransferase (GGT)  0.40 (0.37) U/L

====

Tested on: BALB/c female mice
Assay: Acute toxicity analysis of lipid molecules (cationic lipid LNP) in BALB/c female mice
Details: high dose group, 150 μg LNP/pc; blood 24 h after injection; Ave(SD)
measurement_kind: Alkaline phosphatase (ALP)

> print(dat)
                                   compound  test.result
1  CCCCCCCCCCCOC(=O)CCCCCN(CCCCCCO)CCCCCCCC(=O)OC(CCCCCCCC)CCCCCCCC   111.86 U/L
2  CCCCCCCCCCCOC(=O)CCCCCN(CCCCCO)CCCCCCCC(=O)OC(CCCCCCCC)CCCCCCCC    112.7 U/L
3  CCCCCCCCCCCOC(=O)CCCCCN(CCO)CCCCCCCC(=O)OC(CCCCCCCC)CCCCCCCC [SM102, reference compound]   116.88 U/L
4  CCCCCCCCCCCOC(=O)CCCCCN(CCCCCCCC(=O)OC(CCCCCCCC)CCCCCCCC)C(C)CCO (stereo not drawn)    116.9 U/L
5  CCCCCCCCCCCOC(=O)CCCCCN(CCCCCCCC(=O)OC(CCCCCCCC)CCCCCCCC)CC1(O)CC1   109.84 U/L
6  CCCCCCCCCCCOC(=O)CCCCCN(CCCCCCCCCCCCO)CCCCCCCC(=O)OC(CCCCCCCC)CCCCCCCC    103.8 U/L
